From: PubChem BioAssay (NCI)

System: UACC-257 melanoma
Experiment: NCI-60 one-dose screen, 48 h
Settings: 10 µM unless noted
This is part of a sample that, as a whole, favours compounds with a hit. Of some 83,000 tested, about 20% had one in any assay. Active and inactive are the calls of the source. The calls were made as follows: active = growth percent below 10; inactive = the rest.
Outcome codes: active, inactive

Compound	Class assignment
O=C(O)c1cn(C2CC2)c2cc(N3CCN(C(=O)Nc4nc(-c5ccccc5)cs4)CC3)c(F)cc2c1=O	active
NCCCNc1nc2ccc(Cl)cc2c2c(=O)c3cc(F)ccc3sc12	inactive
CCC(C)(c1cc(C(C)(C)C)c(O)c(C(C)(C)C)c1)c1cc(C(C)(C)C)c(O)c(C(C)(C)C)c1	inactive
Cc1ccc(NC2=C(Cl)C(=O)c3nc(C)ccc3C2=O)cc1	active
Cc1nc(/N=C(\N)NC(=O)Nc2ccccc2Cl)sc1C	inactive
Cc1cccc2c3c(sc12)C(c1ccc(F)cc1)C(C#N)=C(N)O3 (centres undefined)	inactive
COc1ccc(C2CC(c3ccc(Nc4ccnc5cc(Cl)ccc45)cc3)=NN2C=O)cc1 (centres undefined)	inactive
COc1ccc2sc3c(NCCCNCCO)nc4ccccc4c3c(=O)c2c1	inactive
O=C1NC(=O)C(Cn2cnc3ccccc32)N1 (centres undefined)	inactive
COc1cc(C(=O)N2N=C(c3ccc(S(C)(=O)=O)cc3)CC2c2ccco2)cc(OC)c1OC (centres undefined)	inactive
COc1cccc(Oc2ccccc2NC(=O)CNC(=O)c2cccc3ccccc23)c1	inactive
CC1CN(C2CCCCC2)C(=S)N(c2ccccc2)C1=O (centres undefined)	inactive
COc1ccc2c(c1)C(C)Cc1c(ncnc1-n1c(C)nc3ccccc31)N2C (centres undefined)	inactive
CN1CCN(Cc2ccc(NC(=O)c3ccc(C(C)(C)C)c(C#Cc4cnc5cccnn45)c3)cc2C(F)(F)F)CC1	active
